- System: AncSZ;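 note: 11-residue human phosphosite peptides and single-mutation variants displayed on the E. coli surface, counted by deep sequencing, each peptide's frequency after selection divided by its frequency in the unselected input library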;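 note: frequency after pTyr selection over input frequency; kinase dosed for 20-30% of maximal phosphorylation in three min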
- EXPERIMENTAL_DETAILS: phosphorylation enrichment, bacterial display (enrichment ratio); higher = better substrate or ligand; peptides without Tyr show the background
MEASURED_QUANTITY: phosphorylation enrichment

SEQUENCE	MEASURED_QUANTITY	READOUT_VALUE
RHFTGYRIELQ [INSR_Y818]	phosphorylation enrichment	1.01
MALDIYRASYY [ALK_Y1278_R1275L]	phosphorylation enrichment	0.874
RGRKVYLEDGF [PRIM2_Y201]	phosphorylation enrichment	1.04
KNNSIYVVANI [VNN1_Y134]	phosphorylation enrichment	0.982
SVVVPYEPLEV [TP53_Y220_P223L]	phosphorylation enrichment	1.19
MSSHHCDFKKF [ZNF445_Y428_Y428C_YF]	phosphorylation enrichment	0.47
FGGLRCGFGVL [KRTAP20-2_Y13_Y13C_YF]	phosphorylation enrichment	0.91
VDFQPYRKHKF [TEX37_Y28_YF]	phosphorylation enrichment	0.553
PELINYHQHYS [BTK_Y361_N365Y]	phosphorylation enrichment	0.742
KTDVHYRSLGG [DYSF_Y1858]	phosphorylation enrichment	0.468
PFQGAYLEINK [MYO1B_Y967]	phosphorylation enrichment	1.03
GHLYAYDWIRI [BEST1_Y227_S231R]	phosphorylation enrichment	1.44
MCDSHYLESRF [CLK1_Y56_S61F]	phosphorylation enrichment	0.78
EILLSYPRTGF [TGM1_Y365_L366P_YF]	phosphorylation enrichment	0.695
